tested on: MAS1; assay: Intracellular Ca2+ release assay (Fura-2), MAS1 in HEK-Gα15 cells; assay type: cell-based; conditions: HEK cells; RF-amide ligands; read-out: Relative efficacy of activation of MAS1
Ends that are not written are not given here.
experimental_readout: EC50

Could you tell me which EC50 is on file for AGEGLNSQFWSLAAPQRF-NH2 [NPAF] ?
> 1 µM
